The values you see were collected from ChEMBL document CHEMBL1136411.

molecular target: Corticotropin releasing factor receptor (Rattus norvegicus, UniProt P47866+P35353); assay: In vitro binding affinity to the CRF receptor in rat cortical homogenates
readout name: Ki (nM)
Write down the numeric answer in nM and omit the unit.

Examples with answers:
Task item: Fill in the blank: the reported Ki of CCc1nc2c(-c3ccc(Cl)cc3Cl)ccnc2n1C(CCOC)C1CCC1 (stereo not given) is ____.
Reply: 2.4

Task item: One more compound: CCc1nc2c(-c3ccc(Cl)cc3Cl)ccnc2n1[C@@H](CC)C1CC1
Reply: 0.4

New cases:
Task item: State the recorded Ki for this entry: CCCC(C)n1c(CC)nc2c(-c3ccc(SC)cc3C(F)(F)F)ccnc21 (stereo not given)
Reply: 1.4

Task item: Another compound to check: CCCC(C)n1c(CC)nc2c(-c3ccc(Cl)cc3C(C)=O)ccnc21 (stereo not given)
Reply: 95.6

Task item: Moving on to the next compound: CCCC(C)n1c(CC)nc2c(-c3ccc(C(C)OC)cc3Cl)ccnc21 (stereo not given)
Reply: 3.5

Task item: Repeat with CCCC(C)n1c(CC)nc2c(-c3ccc(S(C)(=O)=O)cc3C(F)(F)F)ccnc21 (stereo not given)
Reply: 6.8

Task item: What would you report for CCCC(C)n1c(CC)nc2c(-c3ccc(C(C)O)cc3Cl)ccnc21 (stereo not given) ?
Reply: 5.1

Task item: Lookup CCc1nc2c(-c3ccc(Cl)cc3Cl)ccnc2n1C(C)C1CCC1 (stereo not given)
Reply: 1

Task item: Entry CCc1nc2c(-c3ccc(Cl)cc3Cl)ccnc2n1C(C)CC (stereo not given) please
Reply: 1.3

Task item: Now the same for CCc1nc2c(-c3ccc(C(F)(F)F)cc3Cl)ccnc2n1C(CC)COC (stereo not given)
Reply: 4.7
